These data points were gathered from paper PMC8048867.

Molecular target: UniProtKB Q6HA09
Sequence (Q6HA09 86-435 limits assumed): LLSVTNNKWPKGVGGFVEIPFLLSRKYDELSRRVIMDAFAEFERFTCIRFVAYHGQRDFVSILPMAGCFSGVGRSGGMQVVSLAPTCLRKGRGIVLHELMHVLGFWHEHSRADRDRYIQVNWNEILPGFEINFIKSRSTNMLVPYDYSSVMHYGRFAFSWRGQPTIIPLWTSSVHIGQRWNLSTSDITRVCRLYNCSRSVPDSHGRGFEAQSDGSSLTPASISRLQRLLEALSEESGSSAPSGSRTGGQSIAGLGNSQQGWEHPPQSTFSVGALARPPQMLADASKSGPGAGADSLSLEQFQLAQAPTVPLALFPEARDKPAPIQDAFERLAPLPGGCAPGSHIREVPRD
Experiment: ovastacin inhibition, fluorogenic enzyme activity assay
Observation Type: SF Meprin α: selectivity factor (K i app ovastacin/K i app meprin α)

Compound	Measured On	Observed Measurement
O=C(Cn1c(-c2ccccc2)nnc1-c1ccccc1)NO [2 g]	UniProtKB Q6HA09	74
O=C(CCn1c(-c2ccccc2)cc2ccccc21)NO [4 b]	UniProtKB Q6HA09	3.1
O=C(CCn1c(-c2ccccc2)nc2ccccc21)NO [4 d]	UniProtKB Q6HA09	9.5
O=C(CCn1c(-c2ccccc2)nnc1-c1ccccc1)NO [2 h]	UniProtKB Q6HA09	104
O=C(Cc1c(-c2ccccc2)n[nH]c1-c1ccccc1)NO [2 e]	UniProtKB Q6HA09	65
O=C(Cn1c(-c2ccccc2)cc2ccccc21)NO [4 a]	UniProtKB Q6HA09	1.3
O=C(CCn1nc(-c2ccccc2)cc1-c1ccccc1)NO [3 b]	UniProtKB Q6HA09	3
O=C(Cn1nc(-c2ccccc2)cc1-c1ccccc1)NO [3 a]	UniProtKB Q6HA09	4
O=C(Cn1c(-c2ccccc2)nc2ccccc21)NO [4 c]	UniProtKB Q6HA09	13
O=C(CCc1c(-c2ccccc2)n[nH]c1-c1ccccc1)NO [2 f]	UniProtKB Q6HA09	32
O=C(Cc1c(-c2ccccc2)noc1-c1ccccc1)NO [2 c]	UniProtKB Q6HA09	17

###

Documented viability at 24 h, 30 µM across a set of molecules
test: cell-viability assay; assay type: cell-based; conditions: human, SH-SY5Y cells

Smiles String	Result Unit	viability at 24 h, 30 µM
O=C(CCc1c(-c2ccccc2)noc1-c1ccccc1)NO	%	123
O=C(CCc1c(-c2ccccc2)n[nH]c1-c1ccccc1)NO	%	93
O=C(Cn1c(-c2ccccc2)nnc1-c1ccccc1)NO	%	99
O=C(Cn1c(-c2ccccc2)nc2ccccc21)NO	%	94
O=C(Cc1c(-c2ccccc2)noc1-c1ccccc1)NO	%	96

###

test: cell-viability assay; type: cell-based; details: human, Hep-G2 cells

Molecule	viability at 24 h, 30 µM, %
O=C(Cn1c(-c2ccccc2)nc2ccccc21)NO [4 c]	85
O=C(CCc1c(-c2ccccc2)n[nH]c1-c1ccccc1)NO [2 f]	93
O=C(CCc1c(-c2ccccc2)noc1-c1ccccc1)NO [2 d]	90
O=C(Cn1c(-c2ccccc2)nnc1-c1ccccc1)NO [2 g]	94
O=C(Cc1c(-c2ccccc2)noc1-c1ccccc1)NO [2 c]	85

###

target: MMP9 (Homo sapiens, UniProt P14780); test: off-target proteinase inhibition MMP9; type: biochemical; details: read-out: Relative enzyme activity MMP9
Sequence (P14780 107-707 limits assumed): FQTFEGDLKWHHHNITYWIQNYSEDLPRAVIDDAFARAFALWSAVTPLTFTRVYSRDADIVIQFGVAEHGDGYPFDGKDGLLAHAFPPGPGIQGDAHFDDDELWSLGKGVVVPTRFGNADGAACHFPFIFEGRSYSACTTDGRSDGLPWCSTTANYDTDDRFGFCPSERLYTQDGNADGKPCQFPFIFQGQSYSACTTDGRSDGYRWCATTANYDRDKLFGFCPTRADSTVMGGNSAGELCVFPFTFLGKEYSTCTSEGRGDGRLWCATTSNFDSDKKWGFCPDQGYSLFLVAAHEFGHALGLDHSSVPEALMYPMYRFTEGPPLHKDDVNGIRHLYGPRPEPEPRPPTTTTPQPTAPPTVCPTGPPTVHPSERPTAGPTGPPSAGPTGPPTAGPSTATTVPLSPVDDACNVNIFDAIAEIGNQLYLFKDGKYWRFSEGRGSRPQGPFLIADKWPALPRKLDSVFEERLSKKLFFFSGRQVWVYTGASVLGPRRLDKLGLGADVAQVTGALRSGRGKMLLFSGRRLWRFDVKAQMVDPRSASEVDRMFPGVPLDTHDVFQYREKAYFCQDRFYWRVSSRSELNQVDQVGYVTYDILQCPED
With a cut-off of 90%, any remaining activity at 10 µM strictly below it is called true (1); any remaining activity at 10 µM meeting it or above is called false (0).

Smiles String	Discrete Label
O=C(Cc1c(-c2ccccc2)n[nH]c1-c1ccccc1)NO	true (1)
O=C(Cn1c(-c2ccccc2)nc2ccccc21)NO	false (0)
O=C(CCc1c(-c2ccccc2)n[nH]c1-c1ccccc1)NO	false (0)
O=C(Cc1c(-c2ccccc2)noc1-c1ccccc1)NO	true (1)
O=C(Cn1c(-c2ccccc2)nnc1-c1ccccc1)NO	false (0)

###

Target: recombinant human meprin α (Homo sapiens, UniProt Q16819)
Sequence (Q16819 66-746): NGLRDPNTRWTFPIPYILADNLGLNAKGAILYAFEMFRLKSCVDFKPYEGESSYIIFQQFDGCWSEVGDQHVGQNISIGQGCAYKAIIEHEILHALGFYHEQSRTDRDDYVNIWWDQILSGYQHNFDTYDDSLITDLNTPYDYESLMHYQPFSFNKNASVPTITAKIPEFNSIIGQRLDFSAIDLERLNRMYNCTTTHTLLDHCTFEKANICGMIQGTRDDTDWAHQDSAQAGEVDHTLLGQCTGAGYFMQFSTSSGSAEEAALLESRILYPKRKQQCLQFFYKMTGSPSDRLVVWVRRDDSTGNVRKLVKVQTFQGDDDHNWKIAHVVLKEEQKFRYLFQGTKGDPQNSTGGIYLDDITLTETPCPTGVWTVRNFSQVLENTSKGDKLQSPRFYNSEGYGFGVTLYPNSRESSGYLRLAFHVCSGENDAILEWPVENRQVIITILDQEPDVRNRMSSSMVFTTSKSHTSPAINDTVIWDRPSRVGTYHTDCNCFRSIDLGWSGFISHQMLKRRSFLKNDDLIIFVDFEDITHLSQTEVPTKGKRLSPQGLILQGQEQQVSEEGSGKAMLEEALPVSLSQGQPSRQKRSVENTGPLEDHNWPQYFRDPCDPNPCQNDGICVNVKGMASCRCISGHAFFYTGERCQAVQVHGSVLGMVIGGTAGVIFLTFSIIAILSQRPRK
Experiment: meprin α inhibition, quenched fluorogenic peptide substrate assay
pKi: −log10 of the molar value.
Documented pKi across a set of compounds

Compound	pKi
O=C(CCn1c(-c2ccccc2)ccc1-c1ccccc1)NO [2 b]	6.13
CCCCC[C@H](CC(=O)NO)C(=O)N[C@H](C(=O)N1CCC[C@H]1CO)C(C)C [Actinonin, reference compound]	8.10
O=C(Cn1c(-c2ccccc2)nc2cccnc21)NO [4 f]	6.58
O=C(Cn1nc(-c2ccccc2)cc1-c1ccccc1)NO [3 a]	6.59
O=C(Cc1c2ccccc2nn1-c1ccccc1)NO [4 h]	6.56
O=C(Cc1c(-c2ccccc2)ncn1-c1ccccc1)NO [2 i]	8.70
O=C(CCn1c(-c2ccccc2)cc2ccccc21)NO [4 b]	6.38
O=C(CCc1c(-c2ccccc2)noc1-c1ccccc1)NO [2 d]	7.51
O=C(Cc1c(-c2ccccc2)n[nH]c1-c1ccccc1)NO [2 e]	8.52

###

biological target: MMP13 (Homo sapiens); assay: off-target proteinase inhibition MMP13; assay type: biochemical; conditions: read-out: Relative enzyme activity MMP13
With a cut-off of 80%, any remaining activity at 10 µM strictly below it is called 1.0; any remaining activity at 10 µM meeting it or above is called 0.0.

Smiles String	Measured On	Discrete Label
O=C(Cn1c(-c2ccccc2)cc2ccccc21)NO	MMP13 (Homo sapiens)	1.0
O=C(Cc1c(-c2ccccc2)n[nH]c1-c1ccccc1)NO	MMP13 (Homo sapiens)	1.0
O=C(CCc1c(-c2ccccc2)n[nH]c1-c1ccccc1)NO	MMP13 (Homo sapiens)	0.0
O=C(Cn1c(-c2ccccc2)nc2ccccc21)NO	MMP13 (Homo sapiens)	0.0
O=C(Cn1c(-c2ccccc2)nnc1-c1ccccc1)NO	MMP13 (Homo sapiens)	0.0

###

Biological target: MMP2 (Homo sapiens, UniProt P08253)
Sequence (P08253 110-660): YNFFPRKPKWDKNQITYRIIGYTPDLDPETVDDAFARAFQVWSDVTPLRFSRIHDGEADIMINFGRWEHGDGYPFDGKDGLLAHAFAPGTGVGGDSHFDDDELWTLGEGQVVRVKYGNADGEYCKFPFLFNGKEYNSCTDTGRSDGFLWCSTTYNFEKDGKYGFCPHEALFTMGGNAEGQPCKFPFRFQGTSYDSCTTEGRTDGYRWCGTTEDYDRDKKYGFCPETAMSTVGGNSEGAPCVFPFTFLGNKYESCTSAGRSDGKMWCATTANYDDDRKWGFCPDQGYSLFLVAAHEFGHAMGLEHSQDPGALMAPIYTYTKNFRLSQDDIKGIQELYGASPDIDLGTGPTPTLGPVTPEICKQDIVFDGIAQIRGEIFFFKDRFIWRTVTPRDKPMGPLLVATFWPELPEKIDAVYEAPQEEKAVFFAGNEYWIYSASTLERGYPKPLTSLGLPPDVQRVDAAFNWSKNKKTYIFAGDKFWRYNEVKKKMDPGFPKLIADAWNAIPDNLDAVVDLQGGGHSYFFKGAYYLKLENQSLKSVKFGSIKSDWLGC
Test: off-target proteinase inhibition MMP2
Type: biochemical
Settings: read-out: Relative enzyme activity MMP2

Smiles String	remaining activity at 200 µM, %
O=C(Cc1c(-c2ccccc2)n[nH]c1-c1ccccc1)NO	61
O=C(Cn1c(-c2ccccc2)ccc1-c1ccccc1)NO	1
O=C(CCc1c(-c2ccccc2)n[nH]c1-c1ccccc1)NO	77
O=C(Cc1c(-c2ccccc2)noc1-c1ccccc1)NO	34
O=C(Cn1c(-c2ccccc2)nc2ccccc21)NO	46
O=C(Cn1c(-c2ccccc2)cc2ccccc21)NO	41
O=C(Cn1c(-c2ccccc2)nnc1-c1ccccc1)NO	70
O=C(CCc1c(-c2ccccc2)noc1-c1ccccc1)NO	74
